Test system: AEK1 (Tb927.3.2440)
Experiment: percent reduction in TR-FRET probe signal relative to DMSO control; higher = stronger displacement of ATP-site probe (binding)
Settings: 1 µM; incubation time 1 h
Where a name gives a salt, the structure may show the parent alone.
outcome.measure: percent reduction in TR-FRET probe signal (%)
Numbers only; they are read as %.

// known answers, use as guide
INSERT INTO measurements (molecule, unit_string, assay_value) VALUES
  ('CN(c1ncccc1CNc1nc(Nc2ccc3c(c2)CC(=O)N3)ncc1C(F)(F)F)S(C)(=O)=O', '%', 46.8),
  ('CS(=O)(=O)c1ccc(-c2cnc(N)c(C(=O)Nc3ccccc3)n2)cc1', '%', 5.23),
  ('COc1cc(N2CCC(N)CC2)ccc1Nc1ncc(Cl)c(-c2c[nH]c3ccccc23)n1', '%', 7.47),
  ('O=c1cc(-c2ccccc2)oc2c(O)c(O)ccc12 [7,8-Dihydroxyflavone]', '%', -6.52),
  ('COc1ccc(-c2ccc3ncc4c(c3c2)n(-c2ccc(N3CCNCC3)c(C(F)(F)F)c2)c(=O)n4C)cn1.O=C(O)/C=C\C(=O)O', '%', -5.09),
  ('Cc1cc([C@@H](C)Nc2ccccc2C(=O)O)c2nc(N3CCOCC3)cc(=O)n2c1', '%', -5.32),
  ('COc1cc2c(Oc3ccc4[nH]c(C)cc4c3F)ncnc2cc1OCCCN1CCCC1', '%', 63.4),
  ('Cc1ccc(Nc2nccc(N(C)c3ccc4c(C)n(C)nc4c3)n2)cc1S(N)(=O)=O [Pazopanib HCl]', '%', 3.07),
  ('O=C(NCc1ccccc1)c1csc(Nc2ccncn2)n1', '%', 10.4),
  ('COc1ccc(COc2cc3oc(=O)c4cc(C(C)O)ccc4c3cc2OC)cc1 (configuration not stated)', '%', -5.44);

Task: Look up and state reported percent reduction in TR-FRET probe signal for `CC1(COc2ccc3c(c2)ncn3-c2ccc3cccc(N4CCC(N)CC4)c3n2)COC1`
Result: 18.8

Task: Give percent reduction in TR-FRET probe signal for the following molecule: `CO[C@H]1C[C@@H]2CC[C@@H](C)[C@@](O)(O2)C(=O)C(=O)N2CCCC[C@H]2C(=O)O[C@H]([C@H](C)C[C@@H]2CC[C@@H](OC(=O)C(C)(CO)CO)[C@H](OC)C2)CC(=O)[C@H](C)/C=C(\C)[C@@H](O)[C@@H](OC)C(=O)[C@H](C)C[C@H](C)/C=C/C=C/C=C/1C`
Result: 2.13

Task: In one line, give reported percent reduction in TR-FRET probe signal of the entry `CC(=O)c1c(C)c2cnc(Nc3ccc(N4CCNCC4)cn3)nc2n(C2CCCC2)c1=O.Cl` .
Result: -16.8

Task: State, in one line, measured percent reduction in TR-FRET probe signal of CC1=C(C(=O)Nc2cc3cn[nH]c3cc2F)C(c2ccc(C(F)(F)F)cc2)CC(=O)N1 (configuration not stated)
Result: -2.47

Task: State its percent reduction in TR-FRET probe signal for this molecule: `O=C(O)c1ccc(-c2c[nH]c3ncc(-c4ccccc4)cc23)cc1C1CCCC1`
Result: -2.47

====

Test system: AEK1 (Tb927.3.2440)
Assay: percent reduction in TR-FRET probe signal relative to DMSO control; higher = stronger displacement of ATP-site probe (binding)
Settings: 1 µM; incubation time 1 h
outcome.measure: percent reduction in TR-FRET probe signal (%)
The reply should contain only the number, in %.

INSERT INTO results (compound_structure_string, unit_string, assay_value) VALUES
  ('COc1cc2ncnc(Nc3ccc(O)c(Br)c3)c2cc1OC', '%', -7.2),
  ('S=C(NCc1ccc2c(c1)OCO2)N1CCN(c2ncnc3c2oc2ccccc23)CC1', '%', 3.8),
  ('O=C(NOC[C@H](O)CO)c1ccc(F)c(F)c1Nc1ccc(I)cc1F', '%', -3.89),
  ('Nc1cccc(S(=O)(=O)N2CCCN(S(=O)(=O)c3ccc4c(c3)OCCO4)CC2)c1', '%', -6.38);

Task: Identify the reported percent reduction in TR-FRET probe signal for the following entry. `CNC(=O)c1cccc(-c2ccc3c(N4CCOC[C@@H]4C)nc(N4CCOC[C@@H]4C)nc3n2)c1`
Result: 9.57

Task: Give the measured percent reduction in TR-FRET probe signal for `C[C@@H]1CCN(C(=O)CC#N)C[C@@H]1N(C)c1ncnc2[nH]ccc12.O=C(O)CC(O)(CC(=O)O)C(=O)O`
Result: -1.47

Task: Note percent reduction in TR-FRET probe signal for the compound shown: `Cn1cnc2c(F)c(Nc3ccc(Br)cc3Cl)c(C(=O)NOCCO)cc21`
Result: 11.4

Task: Kindly indicate its recorded percent reduction in TR-FRET probe signal. Item: `C=CC(=O)Nc1cccc(Oc2nc(Nc3ccc(N4CCN(C)CC4)cc3OC)ncc2Cl)c1`
Result: 3
